From various publications: pKi for UniProt P35348.
# measured on: UniProt P35348
# Sequence (P35348 whole entry): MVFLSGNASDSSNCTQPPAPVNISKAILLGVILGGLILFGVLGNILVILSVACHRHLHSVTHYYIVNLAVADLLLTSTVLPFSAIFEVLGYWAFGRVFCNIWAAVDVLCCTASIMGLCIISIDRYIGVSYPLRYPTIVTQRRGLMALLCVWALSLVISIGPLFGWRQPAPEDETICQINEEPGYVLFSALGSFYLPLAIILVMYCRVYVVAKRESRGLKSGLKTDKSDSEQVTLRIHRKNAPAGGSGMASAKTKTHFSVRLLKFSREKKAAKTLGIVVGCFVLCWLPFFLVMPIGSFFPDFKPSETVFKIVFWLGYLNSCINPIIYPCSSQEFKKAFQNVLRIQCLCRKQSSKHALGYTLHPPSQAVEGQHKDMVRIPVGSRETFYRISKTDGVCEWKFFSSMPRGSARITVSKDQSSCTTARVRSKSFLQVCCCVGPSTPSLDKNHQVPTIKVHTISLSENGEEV
pKi: −log10 of the molar value.
measured metric: pKi

Example entries and their recorded answers appear below.
COc1ccc(N2C(=O)c3ccc(C(=O)NCCCN4CCN(c5ccccc5OC(C)C)CC4)cc3C2=O)cc1 | 9.96
COc1cccc(C2CCC(N3CCN(c4ccccn4)CC3)CC2)c1 (trans isomer) | 7.48
Fc1ccccc1N1CCN(CCCCNc2ccccn2)CC1 | 7.77

1: CNC(=O)C1=C(C)NC(C)=C(C(=O)NCCCN2CCC(c3ccccc3)(c3ccccc3)CC2)C1c1ccc2c(c1)OCO2 (stereo not given)
2: COc1ccccc1N1CCN(CCn2c(C)nc3c(sc4ccc(NC(=O)c5ccccc5)cc43)c2=O)CC1
3: COc1ccccc1N1CCN(CCCCNC(=O)N2CCOCC2)CC1
4: CN(C)C1C=CC2(CC1)c1ccccc1C=Cc1ccc(Cl)cc12 (stereo not given)
5: OCc1cc(CN2CCN(c3ccccc3Oc3ccccc3)CC2)on1
Task: Rank ascending by pKi. Use the labels to give the requested order.
Result: 5, 3, 4, 1, 2

###

From various publications: Ki for Alpha-1A adrenergic receptor (Homo sapiens).
measured metric: Ki (nM)

CCC(=O)c1c(-c2ccccc2)nn(C)c(=O)c1NCCN1CCN(c2ccccc2OC)CC1 | 0.19
COc1cccc(OC)c1OCCNC[C@@H]1COc2cc3ccccc3cc2O1 | 102
COC(=O)C1=C(C)NC(=O)N(C(=O)NCCCN2CCN(c3ccccc3[N+](=O)[O-])C[C@@H]2C)C1c1ccc(F)c(F)c1 (some centres undefined) | 0.02

P: O=C1c2ccccc2S(=O)(=O)N1CCCCN1CCN(c2ncccn2)CC1
Q: COc1ccc2c(c1OCCNC[C@@H]1COc3ccccc3O1)CCCC2
Task: Field: lower recorded Ki (choose P or Q ) Kindly state the label of the option you pick.
Result: Q
(Q: 11.5 nM, P: 87 nM)

I: CC(C)(C)c1ccc(C2=NCCN2)cc1
II: Cc1nc2c([nH]c3ccccc32)c(=O)n1CCN1CCN(c2ccc(Cl)c(Cl)c2)CC1
III: COc1ccccc1N1CCN(CCn2c(=O)[nH]c3c(sc4ccc(NC(=O)CCCN(C)C)cc43)c2=O)CC1
IV: COCC1=C(C(=O)OC)[C@H](c2ccc(F)c(F)c2)N(C(=O)N[C@@H]2CC[C@H](N3CCC(c4ccccc4C#N)CC3)C2)C(=O)N1
Task: Order field: Ki | Direction: descending (largest first) Use the labels to give the requested order.
Result: I, II, III, IV
(I: 91 nM, II: 30.2 nM, III: 1.7 nM, IV: 0.24 nM)

###

pKi: −log10 of the molar value.
From various publications: pKi for UniProtKB P35348.
measured metric: pKi

Example entries and their recorded answers appear below.
N#Cc1ccc(Cl)cc1N1CCN(CCN2C(=O)CC3(CCCC3)CC2=O)CC1 | 6.30
CO/C(O)=C1\C(C)=NC(C)=C(C(=O)NCCCN2CCC(c3ccccc3)(c3ccccc3)CC2)C1c1ccc(C)cc1 (centres undefined) | 8.86
O=C1CC2(CCCC2)CC(=O)N1CCN1CCC(c2cc(Cl)ccc2Cl)CC1 | 6.93

A: CCC1=NC(CC)=C(C(=O)NCCCN2CCC(c3ccccc3)(c3ccccc3)CC2)C(c2ccc([N+](=O)[O-])cc2)/C1=C(\O)OC (centres undefined)
B: COc1ccc(S(=O)(=O)N[C@H]2CC[C@H](N3CCC(c4ccccc4OCC(F)F)CC3)CC2)cc1OC
Task: Field: lower recorded pKi (choose A or B ) Kindly state the label of the option you pick.
Result: B

###

From various publications: Ki for Alpha-1A adrenergic receptor (Homo sapiens).
measured metric: Ki (nM)

Example entries and their recorded answers appear below.
O=C1CC2(CCCCC2)CC(=O)N1CCN1CCN(c2cc(Cl)ccc2Cl)CC1 | 331
COC(=O)[C@@H]1CCCN1Cc1ccc(CN2CCN(c3ccccc3OC)CC2)s1 | 12
COc1cc2nc(N3CCC[C@H](NC(=O)c4ccco4)C3)nc(N)c2cc1OC | 0.631
COc1ccc(-c2ccccc2)cc1OCCNC[C@H]1COc2ccccc2O1 | 5.62

a: Clc1cccc(Cl)c1OCCNCCOc1ccccc1OCc1ccccc1
b: COc1cc(-c2ccccc2)ccc1OCCNC[C@@H]1COc2ccccc2O1
c: COc1cccc(OC)c1OCCNC[C@H]1COc2cccc(O)c2O1.Cl
d: COC(=O)C1=C(C)NC(=O)N(C(=O)NCCCN2CCC3(CC2)OCCc2ccccc23)C1c1ccc(F)c(F)c1 (stereo not given)
Task: Rank ascending by Ki. Use the labels to give the requested order.
Result: d, c, a, b
(d: 0.2 nM, c: 2.19 nM, a: 6.31 nM, b: 234 nM)

###

From various publications: Ki for UniProtKB P35348.
measured metric: Ki (nM)

Example entries and their recorded answers appear below.
COc1cccc2c(CCCNCCOc3ccccn3)cccc12 | 14.6
O=C(NCCCCN1CCN(c2ccccc2Cl)CC1)c1ccc2ccccc2c1 | 29.9
COc1cccc(OC)c1OCCNC[C@@H]1CO[C@@H](c2ccccc2)CO1 (relative stereo) | 513
COc1ccccc1N1CCN(CCCNc2c(C(C)=O)c(C)nn(C)c2=O)CC1 | 0.89
Clc1cccc(N2CCN(CCCCNc3ccc4ccccc4n3)CC2)c1Cl | 46

1: CC(C)Oc1ccccc1N1CCN(Cc2cc(CN3CCCCC3=O)nc(N)n2)CC1
2: CS(=O)(=O)c1ccccc1NCC1=NCCN1
3: CS(=O)(=O)c1ccc(Cl)cc1CNCCOc1cc(F)ccc1Cl
4: COc1ccccc1N1CCN(CCn2c(=O)[nH]c3c(sc4ccc(NC(=O)CCCC(=O)N(C)Cc5ccccc5)cc43)c2=O)CC1
5: COc1cccc2c1CCCC2CCCNCCOc1ccccn1 (stereo unspecified)
Task: Rank ascending by Ki. Use the labels to give the requested order.
Result: 5, 4, 1, 2, 3

I: CC(C)Oc1ccccc1N1CCN(Cc2cc(CN3CCCC3=O)cs2)CC1
II: COc1cccc(OC)c1OCCNC[C@H]1COc2cccc(OC)c2O1.Cl
III: Cc1ccc(C(C(=O)NCCCN2CCC(C#N)(c3ccccn3)CC2)c2ccc(C)cc2)cc1
Task: Rank ascending by Ki. Use the labels to give the requested order.
Result: I, II, III
(I: 0.2 nM, II: 0.912 nM, III: 25 nM)

I: CO/C(O)=C1\C(C)=NC(C)=C(C(=O)NCCCN2CCC(c3ccccc3)(c3ccccc3)CC2)C1c1ccc2c(c1)OCO2 (stereo unspecified)
II: O=C(N(CCN1CCN(c2ccccc2O)CC1)c1ccccn1)C12C3C4C1C1C2C3C41I (stereo unspecified)
Task: Lab notebook, comparison: I versus II , higher Ki goes to which? Kindly state the label of the option you pick.
Result: II

A: COc1cccc(OC)c1OCCNC[C@@H]1COc2cccc(O)c2O1
B: Cc1cccc(N2CCN(CCCCNc3ccccn3)CC2)c1C
Task: Lab notebook, comparison: A versus B , higher Ki goes to which? Kindly state the label of the option you pick.
Result: A

A: COCC1=C(C(=O)OC)[C@H](c2ccc(F)c(F)c2)N(C(=O)N[C@H]2CC[C@@H](N3CCN(c4ccccc4C#N)CC3)C2)C(=O)N1
B: Cc1cccc(C)c1OCCNCCOc1ccccc1OCc1ccccc1
Task: Field: lower recorded Ki (choose A or B ) Kindly state the label of the option you pick.
Result: A
(A: 0.44 nM, B: 7.94 nM)

###

From various publications: Ki for Alpha-1A adrenergic receptor (Homo sapiens).
measured metric: Ki (nM)

Example entries and their recorded answers appear below.
CC(C)Oc1ccccc1N1CCN(CCCNC(=O)c2ccc3c(c2)C(=O)N(c2ccc(N(C)C)cc2)C3=O)CC1 | 0.18
Fc1ccc(N2CCN(CCCc3c[nH]c4ccc(F)cc34)CC2)c(-c2ccccc2)c1 | 28
O=C1CC2(CCCC2)CC(=O)N1CCN1CCCN(c2ccccc2Cl)CC1 | 295
Cl.Cn1c(=O)[nH]c2c([nH]c(=O)n2C)c1=N | 885
COc1cccc2c(CCCN3CCN(c4ccccn4)CC3)cccc12 | 1.62
COCCOCCOc1ccc(NC(=O)NCCCN2CCN(c3ccccc3OC)CC2)c(-c2ccccc2)c1 | 38

I: COc1ccccc1N1CCN(CC2CCC(c3ccccc3)(c3ccccc3)O2)CC1 (stereo not given)
II: COc1ccccc1OCCNCC1COC(c2ccccc2)(c2ccccc2)O1 (racemic)
Task: Field: lower recorded Ki (choose I or II ) Kindly state the label of the option you pick.
Result: I
